target-system: GATA4–NKX2-5 transcriptional synergy (Mus musculus, UniProt P42582+Q08369)
Construct: expressed in transfected cells; host or cells: COS-1
Sequence (Q08369 whole entry, one chain of several): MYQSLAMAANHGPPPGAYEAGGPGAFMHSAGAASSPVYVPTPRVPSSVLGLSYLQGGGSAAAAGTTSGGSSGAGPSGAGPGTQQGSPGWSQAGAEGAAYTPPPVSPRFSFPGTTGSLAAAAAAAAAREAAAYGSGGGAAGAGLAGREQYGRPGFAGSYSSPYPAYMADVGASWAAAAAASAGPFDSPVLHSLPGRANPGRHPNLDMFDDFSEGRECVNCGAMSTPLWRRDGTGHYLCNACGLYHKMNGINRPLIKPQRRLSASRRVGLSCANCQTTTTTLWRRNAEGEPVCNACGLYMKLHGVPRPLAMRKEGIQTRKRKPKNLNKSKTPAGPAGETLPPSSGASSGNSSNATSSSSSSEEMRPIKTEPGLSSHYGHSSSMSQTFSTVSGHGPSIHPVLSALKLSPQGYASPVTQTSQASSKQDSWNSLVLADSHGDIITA
test-summary: GATA4–NKX2-5 transcriptional synergy luciferase reporter assay (3xNKE reporter, COS-1 cells)
Type: cell-based
condition-notes: COS-1; compound 3 µM; luciferase reporter activity; spread in separate STDEV column
value-type: activity at 3 µM (%)

CCC(C)NC(=O)c1cc(-c2ccco2)on1 (centres unmarked)
127
CCN(CC)c1ccc(NC(=O)c2ncoc2-c2ccco2)cc1 [Compound 47x]
116
COc1ccc(NC(=O)c2c(-c3ccc(Br)s3)noc2C)cc1Cl
92
CCN(CC)c1ccc(NC(=O)c2c(-c3cc(C)on3)noc2C)cc1 [Compound 39o]
97.1
Cc1onc(-c2ccccc2)c1C(=O)Nc1ccc(OCC(F)(F)F)c(Cl)c1
89.2
CCSCCOC(=O)c1ccc(NC(=O)c2c(-c3ccccc3)noc2C)cc1
115
CCN(CC)c1ccc(NC(=O)c2c[nH]nc2C2CCCCC2)cc1
94.8
CCN(CC)c1ccc(NC(=O)C2CCCC2)cc1
112

----------
target-system: NKX2-5 transcriptional activity (Mus musculus)
Construct: expressed in transfected cells; host or cells: COS-1
Sequence (P42582 whole entry): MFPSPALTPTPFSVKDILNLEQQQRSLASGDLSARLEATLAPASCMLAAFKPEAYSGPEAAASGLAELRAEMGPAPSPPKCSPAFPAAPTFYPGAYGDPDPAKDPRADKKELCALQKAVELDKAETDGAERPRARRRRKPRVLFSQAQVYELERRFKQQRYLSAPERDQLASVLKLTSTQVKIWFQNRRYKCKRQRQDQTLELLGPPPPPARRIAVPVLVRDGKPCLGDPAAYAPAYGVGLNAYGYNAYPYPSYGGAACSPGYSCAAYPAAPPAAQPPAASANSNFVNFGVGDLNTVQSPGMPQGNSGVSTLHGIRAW
test-summary: NKX2-5 luciferase reporter assay (3xNKE reporter, COS-1 cells)
Assay type: cell-based
condition-notes: COS-1; 3 µM; luciferase reporter activity relative to control; read-out: NKX.3µM
value-type: activity at 3 µM (%)

CN(C)c1ccc(NCc2c[nH]nc2-c2ccc(F)cc2)cc1 [SI78]
70.7
CCN(CC)c1ccc(NC(=O)c2snnc2-c2ccccc2)cc1 [Compound 47n]
71.1
CCN(c1ccc(NC(=O)c2c(C)noc2-c2ccccc2)cc1)C(C)C [Compound 63]
69.7

----------
target-system: GATA4–NKX2-5 transcriptional synergy (Mus musculus, UniProt P42582+Q08369)
Construct: expressed in transfected cells; host or cells: COS-1
test-summary: GATA4–NKX2-5 transcriptional synergy luciferase reporter assay (3xNKE reporter, COS-1 cells)
Format: cell-based
condition-notes: COS-1; GATA4-NKX2-5 transcriptional synergy luciferase reporter assay, compound at 3 µM
Protocol: To screen compounds for the GATA4–NKX2-5 interaction, we have developed a luciferase reporter assay based on their property to activate gene transcription synergistically through the NKX2-5 binding site on DNA.[28] […] Raw luciferase data were analyzed in Excel, and clear outliers were removed from triplicates by using the Grubb’s test. […] Statistical significance of luciferase reporter assay data was evaluated by randomized block analysis of variance followed by Dunnett’s post hoc test. […]
value-type: activity at 3 µM (%)

CCN(CC)c1ccc(NC(=O)c2c(-c3ccccc3)noc2C)c(C)c1
85.4
CCN(CC)c1ccc(NC(=O)c2c(-c3ccccn3)noc2C)cc1
90.9
O=C(Nc1ccc2c(c1)OC(F)(F)O2)c1cc(-c2ccco2)on1
91.8
Cc1cc(-c2noc(C)c2C(=O)Nc2cccc(Cl)c2)no1
83
O=C(Nc1cccc(N2CCCC2=O)c1)c1cc(-c2ccccc2)[nH]n1
102
O=C(Nc1ccc(F)c(Cl)c1)c1cnoc1-c1ccco1
108
Cc1cc(-c2noc(C)c2C(=O)Nc2ccc(C(F)(F)F)cc2)no1
98.8
O=C(Nc1ccc(N2CCCS2(=O)=O)cc1)c1c[nH]cc1-c1ccc(Cl)s1
96.7
CCOC(=O)c1cc(NC(=O)c2cc(-c3ccccc3)no2)c[nH]1
100
O=C1COc2ccc(NC(=O)c3cc(-c4ccccc4)[nH]n3)cc2N1
101
CCC1(C)Oc2ccc(NC(=O)c3cnoc3-c3ccc(C)o3)cc2O1 (stereo not shown)
106
COc1cc(C(=O)Nc2cc(-c3ccncc3)n[nH]2)ccc1C
93.2
O=C(Nc1cc(-c2cccs2)n[nH]1)c1ccccc1
110
